Molecular target: human chemokine receptor CCR3 (Homo sapiens)
Construct: expressed in transfected cells; host or cells: K562 cell line (hCCR3-C1 cells), membrane preparation
Sequence (P51677 1-355): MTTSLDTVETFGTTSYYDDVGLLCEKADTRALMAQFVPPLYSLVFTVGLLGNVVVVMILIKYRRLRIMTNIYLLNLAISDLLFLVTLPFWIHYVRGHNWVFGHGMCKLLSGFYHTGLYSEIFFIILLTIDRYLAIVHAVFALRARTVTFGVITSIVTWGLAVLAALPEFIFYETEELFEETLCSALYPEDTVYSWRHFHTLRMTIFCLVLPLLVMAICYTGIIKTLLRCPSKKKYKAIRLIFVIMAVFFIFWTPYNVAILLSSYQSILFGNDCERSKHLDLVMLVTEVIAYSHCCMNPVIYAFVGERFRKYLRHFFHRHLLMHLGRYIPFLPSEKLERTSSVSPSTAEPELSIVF
Assay: CCR3 receptor binding assay (SPA, 125I-eotaxin-1 displacement, hCCR3-C1 K562 cell membranes)
Details: 1 μM test compound; human Eotaxin-1 at human CCR3-Rezeptor; read-out: CCR3 % inh @ 1 μM
OBSERVATION_TYPE: inhibition at 1 µM (%)

1 = CNC(=O)c1cccc(NC(=O)[C@H]2CCC(=O)N2C2CCN(Cc3ccc(Cl)cc3)CC2)c1
2 = Cc1cc(CN2CCC(N3C(=O)CC[C@@H]3C(=O)N(C)c3ccccn3)CC2)ccc1Cl
Enquiry: Among 1 and 2 , whose measured inhibition at 1 µM is the smaller figure? // output: label of the selected item
Return: 2
(2: 54%, 1: 86%)

A = Cc1cc(CN2CCC(N3C(=O)CC[C@@H]3C(=O)Nc3cc(C(=O)N(C)CCO)cc(-c4nnnn4C)c3)CC2)ccc1Cl
B = CCCCc1cc(C(=O)N(C)C)cc(NC(=O)C2CCC(=O)N2C2CCN(Cc3ccc(Cl)c(C)c3)CC2)n1 (stereo not shown)
C = Cc1cc(CN2CCC(N3C(=O)CC[C@@H]3C(=O)N3CCc4ccc([N+](=O)[O-])cc4C3)CC2)ccc1Cl
Enquiry: Thanks in advance: please rank these 3 entries by inhibition at 1 µM, highest to lowest. Quick reminder: the answer is the labels in the order asked.
Return: A, B, C

a = CC(=O)Nc1nc2c(s1)-c1cc(NC(=O)[C@H]3CCC(=O)N3C3CCN(Cc4ccc(Cl)c(C)c4)CC3)ccc1CC2
b = Cc1cc(CN2CCC(N3C(=O)CC[C@@H]3C(=O)N[C@H]3CCN(C(=O)OC(C)(C)C)C3)CC2)ccc1Cl
Enquiry: Among a and b , whose measured inhibition at 1 µM is the smaller figure? // output: label of the selected item
Return: b

###

Biological target: human chemokine receptor CCR3 (Homo sapiens)
Construct: expressed in transfected cells; host or cells: K562 cell line (hCCR3-C1 cells), membrane preparation
Experiment: CCR3 receptor binding assay (SPA, 125I-eotaxin-1 displacement, hCCR3-C1 K562 cell membranes)
Conditions: 1 μM test compound; human Eotaxin-1 at human CCR3-Rezeptor; read-out: CCR3 % inh @ 1 μM
OBSERVATION_TYPE: inhibition at 1 µM (%)

- COMPOUND: "Cc1cc(CN2CCC(N3C(=O)N(C)C[C@H]3C(=O)Nc3cc(C4CC4)nn3C)CC2)ccc1Cl [Example 209]"
  EXPERIMENTAL_TARGET: "human chemokine receptor CCR3 (Homo sapiens)"
  inhibition at 1 µM / %: 95
- COMPOUND: "Cc1cc(CN2CCC(N3C(=O)N(C)C[C@H]3C(=O)Nc3cccc(-c4cscn4)c3)CC2)ccc1Cl [Example 125]"
  EXPERIMENTAL_TARGET: "human chemokine receptor CCR3 (Homo sapiens)"
  inhibition at 1 µM / %: 97
- COMPOUND: "COC(=O)c1cc(NC(=O)[C@H]2CCC(=O)N2C2CCN(Cc3ccc(Cl)c(C)c3)CC2)cn1C [Example 94]"
  EXPERIMENTAL_TARGET: "human chemokine receptor CCR3 (Homo sapiens)"
  inhibition at 1 µM / %: 94
- COMPOUND: "CCn1cc(NC(=O)[C@H]2CCC(=O)N2C2CCN(Cc3ccc(Cl)c(C)c3)CC2)cc1C(=O)OC [Example 91]"
  EXPERIMENTAL_TARGET: "human chemokine receptor CCR3 (Homo sapiens)"
  inhibition at 1 µM / %: 98

Source: patent US8653075B2
